- Tested on: MA-treated mice
- method_summary: Striatal dopamine and metabolites in MA-treated mice
- Type: in vivo
- condition_summary: morphinan 24 (mg/kg) + MA; 3 days after final MA
Marks after values point to notes of the source that are not given here.
property_name: Concentration DA in the striatum

Here's what some known entries look like.
Prompt line: # lookup: Concentration DA in the striatum of `CN1CC[C@]23CCCC[C@H]2[C@H]1Cc1ccc(OCC2CC2)cc13`
Response line: 777 ± 66^c ng/100 mg wet tissue

Prompt line: # lookup: Concentration DA in the striatum of `Cc1ccc2c(c1)[C@@]13CCCC[C@H]1[C@@H](C2)N(C)CC3`
Response line: 762 ± 81^b ng/100 mg wet tissue

Prompt line: # lookup: Concentration DA in the striatum of Oc1ccc2c(c1)[C@@]13CCCC[C@H]1[C@@H](C2)NCC3 [HM, 3-hydroxymorphinan]
Response line: 864 ± 82^d ng/100 mg wet tissue

Prompt line: # lookup: Concentration DA in the striatum of `C=CCOc1ccc2c(c1)[C@@]13CCCC[C@H]1[C@@H](C2)N(C)CC3`
Response line: 749 ± 64^b ng/100 mg wet tissue

Next:
Prompt line: # lookup: Concentration DA in the striatum of COc1ccc2c(c1)[C@@]13CCCC[C@H]1[C@@H](C2)N(C)CC3 [DM, 3-methoxy-17-methylmorphinan, reference compound]
Response line: 782 ± 72^c ng/100 mg wet tissue

----------
Some compounds, each annotated with its measured Concentration HVA in the striatum.
- Tested on: MPTP-treated mice
- method_summary: Striatal dopamine and metabolites (HPLC-EC) in MPTP-treated mice
- condition_summary: morphinan 24 (mg/kg) + MPTP
Report the value in ng/100 mg wet tissue with no unit label.

Prompt line: # lookup: Concentration HVA in the striatum of `C=CCOc1ccc2c(c1)[C@@]13CCCC[C@H]1[C@@H](C2)N(C)CC3`
Response line: 78

Next:
Prompt line: # lookup: Concentration HVA in the striatum of `Cc1ccc2c(c1)[C@@]13CCCC[C@H]1[C@@H](C2)N(C)CC3`
Response line: 68

----------
Some compounds, each annotated with its measured Concentration DA in the striatum.
- System: MA-treated mice
- method_summary: Striatal dopamine and metabolites in MA-treated mice
- Format: in vivo
- condition_summary: morphinan 12 (mg/kg) + MA; 3 days after final MA; mean ± S.E.M., 8 animals
Report the value in ng/100 mg wet tissue with no unit label.

Prompt line: # lookup: Concentration DA in the striatum of COc1ccc2c(c1)[C@@]13CCCC[C@H]1[C@@H](C2)N(C)CC3 [DM, 3-methoxy-17-methylmorphinan, reference compound]
Response line: 625

Next:
Prompt line: # lookup: Concentration DA in the striatum of C=CCOc1ccc2c(c1)[C@@]13CCCC[C@H]1[C@@H](C2)N(C)CC3 [AM, 3-allyloxy-17-methylmorphinan]
Response line: 601

Prompt line: # lookup: Concentration DA in the striatum of Oc1ccc2c(c1)[C@@]13CCCC[C@H]1[C@@H](C2)NCC3 [HM, 3-hydroxymorphinan]
Response line: 685

Prompt line: # lookup: Concentration DA in the striatum of Cc1ccc2c(c1)[C@@]13CCCC[C@H]1[C@@H](C2)N(C)CC3 [DF, 3-methyl-17-methyl-morphinan]
Response line: 603

Prompt line: # lookup: Concentration DA in the striatum of CN1CC[C@]23CCCC[C@H]2[C@H]1Cc1ccc(OCC2CC2)cc13 [CM, 3-cyclopropylmethoxy-17-methylmorphinan]
Response line: 668

----------
- System: cocaine-treated mice
- method_summary: Cocaine-induced hyperlocomotion
- Format: in vivo
- condition_summary: cocaine 20 mg/kg i.p. x 7 days; morphinan 15 or 30 mg/kg i.p. 30 min before
property_name: effect on hyperactivity induced by high dose of cocaine

Here's what some known entries look like.
Prompt line: # lookup: effect on hyperactivity induced by high dose of cocaine of `Cc1ccc2c(c1)[C@@]13CCCC[C@H]1[C@@H](C2)N(C)CC3`
Response line: not uniform

Prompt line: # lookup: effect on hyperactivity induced by high dose of cocaine of Oc1ccc2c(c1)[C@@]13CCCC[C@H]1[C@@H](C2)NCC3 [HM, 3-hydroxymorphinan]
Response line: not uniform

Prompt line: # lookup: effect on hyperactivity induced by high dose of cocaine of `C=CCOc1ccc2c(c1)[C@@]13CCCC[C@H]1[C@@H](C2)N(C)CC3`
Response line: not uniform

Prompt line: # lookup: effect on hyperactivity induced by high dose of cocaine of COc1ccc2c(c1)[C@@]13CCCC[C@H]1[C@@H](C2)NCC3 [MM, 3-methoxymorphinan, reference compound]
Response line: attenuated

Prompt line: # lookup: effect on hyperactivity induced by high dose of cocaine of `CN1CC[C@]23CCCC[C@H]2[C@H]1Cc1ccc(OCC2CC2)cc13`
Response line: not uniform

Now for the compound whose effect on hyperactivity induced by high dose of cocaine we want.
Prompt line: # lookup: effect on hyperactivity induced by high dose of cocaine of COc1ccc2c(c1)[C@@]13CCCC[C@H]1[C@@H](C2)N(C)CC3 [DM, 3-methoxy-17-methylmorphinan, reference compound]
Response line: attenuated

----------
Some compounds, each annotated with its measured Concentration DA in the striatum.
- System: MPTP-treated mice
- method_summary: Striatal dopamine and metabolites (HPLC-EC) in MPTP-treated mice
- condition_summary: morphinan 24 (mg/kg) + MPTP; mean ± S.E.M., 8 animals
Report the value in ng/100 mg wet tissue with no unit label.

Prompt line: # lookup: Concentration DA in the striatum of Cc1ccc2c(c1)[C@@]13CCCC[C@H]1[C@@H](C2)N(C)CC3 [DF, 3-methyl-17-methyl-morphinan]
Response line: 397

Now for the compound whose Concentration DA in the striatum we want.
Prompt line: # lookup: Concentration DA in the striatum of C=CCOc1ccc2c(c1)[C@@]13CCCC[C@H]1[C@@H](C2)N(C)CC3 [AM, 3-allyloxy-17-methylmorphinan]
Response line: 539

----------
- Tested on: LPS-treated mice
- method_summary: Striatal dopamine and metabolites in LPS-treated mice
- Type: in vivo
- condition_summary: morphinan 12 (mg/kg) + LPS; 3 weeks after LPS; mean ± S.E.M., 8 animals
- Description: Control animals received striatal injection with PBS. Mice were sacrificed at 3 weeks after LPS treatment.
Please assign false (0) whenever Concentration DA in the striatum is at or above 600 ng/100 mg wet tissue, and true (1) whenever it is below.

Prompt line: Quick check: does C=CCOc1ccc2c(c1)[C@@]13CCCC[C@H]1[C@@H](C2)N(C)CC3 [AM, 3-allyloxy-17-methylmorphinan] have Concentration DA in the striatum under 600 ng/100 mg wet tissue?
Response line: true (1)

Next:
Prompt line: Quick check: does Oc1ccc2c(c1)[C@@]13CCCC[C@H]1[C@@H](C2)NCC3 [HM, 3-hydroxymorphinan] have Concentration DA in the striatum under 600 ng/100 mg wet tissue?
Response line: false (0)

Prompt line: Quick check: does CN1CC[C@]23CCCC[C@H]2[C@H]1Cc1ccc(OCC2CC2)cc13 [CM, 3-cyclopropylmethoxy-17-methylmorphinan] have Concentration DA in the striatum under 600 ng/100 mg wet tissue?
Response line: true (1)

Prompt line: Quick check: does Cc1ccc2c(c1)[C@@]13CCCC[C@H]1[C@@H](C2)N(C)CC3 [DF, 3-methyl-17-methyl-morphinan] have Concentration DA in the striatum under 600 ng/100 mg wet tissue?
Response line: false (0)

----------
Some compounds, each annotated with its measured Concentration DOPAC in the striatum.
- System: LPS-treated mice
- method_summary: Striatal dopamine and metabolites in LPS-treated mice
- Format: in vivo
- condition_summary: morphinan 24 (mg/kg) + LPS
- Excerpt: Control animals received striatal injection with PBS. Mice were sacrificed at 3 weeks after LPS treatment.
Marks after values point to notes of the source that are not given here.

Here's what some known entries look like.
Prompt line: # lookup: Concentration DOPAC in the striatum of Oc1ccc2c(c1)[C@@]13CCCC[C@H]1[C@@H](C2)NCC3 [HM, 3-hydroxymorphinan]
Response line: 112 ± 11^d ng/100 mg wet tissue

Prompt line: # lookup: Concentration DOPAC in the striatum of `CN1CC[C@]23CCCC[C@H]2[C@H]1Cc1ccc(OCC2CC2)cc13`
Response line: 86 ± 9^c ng/100 mg wet tissue

Next:
Prompt line: # lookup: Concentration DOPAC in the striatum of `Cc1ccc2c(c1)[C@@]13CCCC[C@H]1[C@@H](C2)N(C)CC3`
Response line: 59 ± 8 ng/100 mg wet tissue

Prompt line: # lookup: Concentration DOPAC in the striatum of `C=CCOc1ccc2c(c1)[C@@]13CCCC[C@H]1[C@@H](C2)N(C)CC3`
Response line: 66 ± 7 ng/100 mg wet tissue

Prompt line: # lookup: Concentration DOPAC in the striatum of COc1ccc2c(c1)[C@@]13CCCC[C@H]1[C@@H](C2)N(C)CC3 [DM, 3-methoxy-17-methylmorphinan, reference compound]
Response line: 105 ± 12^b ng/100 mg wet tissue
